# TARGET ENTITY: recombinant human GBA (beta-glucocerebrosidase) (Homo sapiens, UniProt P04062)
# Sequence (P04062 40-536): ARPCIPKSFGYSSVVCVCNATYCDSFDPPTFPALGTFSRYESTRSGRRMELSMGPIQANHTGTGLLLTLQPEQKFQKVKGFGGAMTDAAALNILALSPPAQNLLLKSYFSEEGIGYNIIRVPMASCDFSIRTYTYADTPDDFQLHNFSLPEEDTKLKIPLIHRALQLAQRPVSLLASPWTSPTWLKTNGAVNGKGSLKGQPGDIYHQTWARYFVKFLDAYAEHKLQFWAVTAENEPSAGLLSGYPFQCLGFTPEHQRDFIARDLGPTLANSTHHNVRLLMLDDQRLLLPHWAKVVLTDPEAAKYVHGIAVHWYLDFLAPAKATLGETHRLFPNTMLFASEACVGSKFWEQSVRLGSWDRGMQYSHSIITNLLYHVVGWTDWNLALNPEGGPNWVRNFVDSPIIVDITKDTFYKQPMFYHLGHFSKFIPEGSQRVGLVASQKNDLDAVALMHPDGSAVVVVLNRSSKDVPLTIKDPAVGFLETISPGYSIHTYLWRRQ
# ASSAY REMARKS: Beta-glucocerebrosidase (GBA, glucosylceramidase) assay (4-methylumbelliferyl-beta-D-pyranoside substrate, fluorescence)
# Experimental: Beta-glucocerebrosidase (GBA, also referred to glucosylceramidase): To analyze inhibitory effects of a test compound, commercially available recombinant human GBA was incubated with multiple dilutions of test compound for 60 minutes at 37° C. […] 1,4-methyllumbelliferone was detected by fluorescence (excitation at 365 nm, emission at 440 nm). Relative fluorescence compared to untreated enzymatic activity and test compound concentration is then plotted as a function of percent inhibition. […]
Label y when IC50 < 5 µM; otherwise n.

compound="OC[C@@H]1[C@@H](O)[C@H](O)[C@@H](O)CN1Cc1cccc(CNc2ccc(Br)cc2)c1 [Compound 1027]" class_label=n
compound="OC[C@@H]1[C@@H](O)[C@H](O)[C@@H](O)CN1Cc1ccc(CNc2cc(C3CC3)cc(N3CCOCC3)c2)cc1 [Compound 1010]" class_label=n
compound="CCCc1nc(-c2cc(Cl)cc(NCCc3ccc(CCN4C[C@H](O)[C@@H](O)[C@H](O)[C@H]4CO)cc3)c2)no1 [Compound 1123]" class_label=y
compound="Cc1cc(NCc2cnc(CN3C[C@H](O)[C@@H](O)[C@H](O)[C@H]3CO)cn2)cc(N2CCOCC2)c1 [Compound 1332]" class_label=n
compound="[N-]=[N+]=Nc1ccc(NCCc2nccc(CCN3C[C@H](O)[C@@H](O)[C@H](O)[C@H]3CO)n2)c([N+](=O)[O-])c1 [Compound 1188]" class_label=n
compound="O=[N+]([O-])c1cc(-c2ccncc2)ccc1NCCc1ccc(CCN2C[C@H](O)[C@@H](O)[C@H](O)[C@H]2CO)cc1 [Compound 1110]" class_label=y
